Quick reference for pEC50 among some molecules
EXPERIMENTAL_TARGET: mMC5R (Mus musculus, UniProt P41149)
Sequence (P41149 whole entry): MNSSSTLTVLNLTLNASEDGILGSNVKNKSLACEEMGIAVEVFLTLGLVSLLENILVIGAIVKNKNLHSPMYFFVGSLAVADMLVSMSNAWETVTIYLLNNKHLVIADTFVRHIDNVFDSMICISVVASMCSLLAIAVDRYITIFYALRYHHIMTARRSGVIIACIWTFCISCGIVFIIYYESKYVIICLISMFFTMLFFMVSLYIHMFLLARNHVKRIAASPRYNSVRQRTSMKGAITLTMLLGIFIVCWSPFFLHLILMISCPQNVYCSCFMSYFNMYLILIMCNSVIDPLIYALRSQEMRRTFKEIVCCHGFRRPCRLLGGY
MEASUREMENT_DESCRIPTION: β-galactosidase cAMP reporter assay, agonist pharmacology in HEK293 cells stably expressing mMC5R
COND: β-galactosidase cAMP, HEK293; mean ± SEM; apparent EC50 for partial agonists
Non-standard residues stand in square brackets, D forms with d. Residues, ends and D or L forms follow the SMILES beside them. dPhe(4-tBu) = CC(C)(C)c1ccc(C[C@@H](N)C(=O)O)cc1; dPhe(4-CF3) = N[C@H](Cc1ccc(C(F)(F)F)cc1)C(=O)O; dPhe(4-CN) = N#Cc1ccc(C[C@@H](N)C(=O)O)cc1; dBip = N[C@H](Cc1ccc(-c2ccccc2)cc1)C(=O)O; dPhe(4-Me) = Cc1ccc(C[C@@H](N)C(=O)O)cc1; Tic = O=C(O)[C@@H]1Cc2ccccc2CN1
Scale explanation: pEC50 corresponds to minus log10 of a concentration expressed in moles per litre.

Past entries and their recorded results:
{"MOLECULE": "CC(=O)N[C@@H](Cc1c[nH]cn1)C(=O)N[C@@H](CCCNC(=N)N)C(=O)N[C@H](Cc1ccc(C#N)cc1)C(=O)N1Cc2ccccc2C[C@H]1C(N)=O [KNS2-23-8, Ac-His-Arg-(pCN)DPhe-Tic-NH2] (Ac-HR[dPhe(4-CN)][Tic]-NH2)", "NUMERIC_VALUE": 6.30}
{"MOLECULE": "CC(=O)N[C@@H](Cc1c[nH]cn1)C(=O)N[C@@H](CCCNC(=N)N)C(=O)N[C@H](Cc1ccc(-c2ccccc2)cc1)C(=O)N1Cc2ccccc2C[C@H]1C(N)=O [KNS2-23-1, Ac-His-Arg-DBip-Tic-NH2] (Ac-HR[dBip][Tic]-NH2)", "NUMERIC_VALUE": 8.12}
{"MOLECULE": "CC(=O)N[C@@H](Cc1c[nH]cn1)C(=O)N[C@@H](CCCNC(=N)N)C(=O)N[C@H](Cc1ccc(C(F)(F)F)cc1)C(=O)N1Cc2ccccc2C[C@H]1C(N)=O [KNS2-23-6, Ac-His-Arg-(pCF3)DPhe-Tic-NH2] (Ac-HR[dPhe(4-CF3)][Tic]-NH2)", "NUMERIC_VALUE": 7.89}
{"MOLECULE": "CC(=O)N[C@@H](Cc1c[nH]cn1)C(=O)N[C@@H](CCCNC(=N)N)C(=O)N[C@H](Cc1ccc(C(C)(C)C)cc1)C(=O)N1Cc2ccccc2C[C@H]1C(N)=O [KNS2-23-3, Ac-His-Arg-(ptBu)DPhe-Tic-NH2] (Ac-HR[dPhe(4-tBu)][Tic]-NH2)", "NUMERIC_VALUE": 8.47}
{"MOLECULE": "CC(=O)N[C@@H](Cc1c[nH]cn1)C(=O)N[C@@H](CCCNC(=N)N)C(=O)N[C@H](Cc1ccccc1)C(=O)N1Cc2ccccc2C[C@H]1C(N)=O [KNS3-10, Ac-His-Arg-DPhe-Tic-NH2] (Ac-HR[dF][Tic]-NH2)", "NUMERIC_VALUE": 6.70}

Next:
Query: Name the recorded pEC50 for CC(=O)N[C@@H](Cc1c[nH]cn1)C(=O)N[C@@H](CCCNC(=N)N)C(=O)N[C@H](Cc1ccc(C)cc1)C(=O)N1Cc2ccccc2C[C@H]1C(N)=O [KNS2-23-7, Ac-His-Arg-(pMe)DPhe-Tic-NH2] (Ac-HR[dPhe(4-Me)][Tic]-NH2) .
Result: 7.77

---

EXPERIMENTAL_TARGET: mMC4R (Mus musculus, UniProt P56450)
Construct: expressed in transfected cells
Sequence (P56450 whole entry): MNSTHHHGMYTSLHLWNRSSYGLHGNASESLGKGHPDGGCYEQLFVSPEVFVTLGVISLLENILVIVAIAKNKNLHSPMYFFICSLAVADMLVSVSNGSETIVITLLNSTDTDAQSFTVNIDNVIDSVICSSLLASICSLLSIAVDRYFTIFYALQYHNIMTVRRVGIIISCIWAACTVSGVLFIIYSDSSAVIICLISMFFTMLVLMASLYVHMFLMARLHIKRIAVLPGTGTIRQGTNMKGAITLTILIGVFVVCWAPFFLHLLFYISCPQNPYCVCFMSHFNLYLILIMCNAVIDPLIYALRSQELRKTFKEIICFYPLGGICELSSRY
MEASUREMENT_DESCRIPTION: β-galactosidase cAMP reporter assay, agonist pharmacology in HEK293 cells stably expressing mMC4R
Assay type: cell-based
COND: relative to maximal NDP-MSH signal
Non-standard residues stand in square brackets, D forms with d. Residues, ends and D or L forms follow the SMILES beside them. dPhe(4-tBu) = CC(C)(C)c1ccc(C[C@@H](N)C(=O)O)cc1; dPhe(4-CF3) = N[C@H](Cc1ccc(C(F)(F)F)cc1)C(=O)O; dBip = N[C@H](Cc1ccc(-c2ccccc2)cc1)C(=O)O; dPhe(4-Br) = N[C@H](Cc1ccc(Br)cc1)C(=O)O; dPhe(4-Me) = Cc1ccc(C[C@@H](N)C(=O)O)cc1; dPhe(4-F) = N[C@H](Cc1ccc(F)cc1)C(=O)O; Tic = O=C(O)[C@@H]1Cc2ccccc2CN1
Please use True whenever mMC4R percent maximal stimulation relative to NDP-MSH (partial agonist) is not below 40 % NDP, and False whenever it is.

{"COMPOUND": "CC(=O)N[C@@H](Cc1c[nH]cn1)C(=O)N[C@@H](CCCNC(=N)N)C(=O)N[C@H](Cc1ccc(C(C)(C)C)cc1)C(=O)N1Cc2ccccc2C[C@H]1C(N)=O [KNS2-23-3, Ac-His-Arg-(ptBu)DPhe-Tic-NH2] (Ac-HR[dPhe(4-tBu)][Tic]-NH2)", "LABEL_CLASS": "False"}
{"COMPOUND": "CC(=O)N[C@@H](Cc1c[nH]cn1)C(=O)N[C@@H](CCCNC(=N)N)C(=O)N[C@H](Cc1ccc(F)cc1)C(=O)N1Cc2ccccc2C[C@H]1C(N)=O [KNS2-22-2, Ac-His-Arg-(pF)DPhe-Tic-NH2] (Ac-HR[dPhe(4-F)][Tic]-NH2)", "LABEL_CLASS": "True"}
{"COMPOUND": "CC(=O)N[C@@H](Cc1c[nH]cn1)C(=O)N[C@@H](CCCNC(=N)N)C(=O)N[C@H](Cc1ccc(C)cc1)C(=O)N1Cc2ccccc2C[C@H]1C(N)=O [KNS2-23-7, Ac-His-Arg-(pMe)DPhe-Tic-NH2] (Ac-HR[dPhe(4-Me)][Tic]-NH2)", "LABEL_CLASS": "True"}
{"COMPOUND": "CC(=O)N[C@@H](Cc1c[nH]cn1)C(=O)N[C@@H](CCCNC(=N)N)C(=O)N[C@H](Cc1ccc(C(F)(F)F)cc1)C(=O)N1Cc2ccccc2C[C@H]1C(N)=O [KNS2-23-6, Ac-His-Arg-(pCF3)DPhe-Tic-NH2] (Ac-HR[dPhe(4-CF3)][Tic]-NH2)", "LABEL_CLASS": "False"}
{"COMPOUND": "CC(=O)N[C@@H](Cc1c[nH]cn1)C(=O)N[C@@H](CCCNC(=N)N)C(=O)N[C@H](Cc1ccc(Br)cc1)C(=O)N1Cc2ccccc2C[C@H]1C(N)=O [KNS2-22-3, Ac-His-Arg-(pBr)DPhe-Tic-NH2] (Ac-HR[dPhe(4-Br)][Tic]-NH2)", "LABEL_CLASS": "True"}

Query: Quick check: does CC(=O)N[C@@H](Cc1c[nH]cn1)C(=O)N[C@@H](CCCNC(=N)N)C(=O)N[C@H](Cc1ccc(-c2ccccc2)cc1)C(=O)N1Cc2ccccc2C[C@H]1C(N)=O [KNS2-23-1, Ac-His-Arg-DBip-Tic-NH2] (Ac-HR[dBip][Tic]-NH2) have mMC4R percent maximal stimulation relative to NDP-MSH (partial agonist) greater than or equal to 40 % NDP?
Result: True

---

EXPERIMENTAL_TARGET: mMC1R (Mus musculus, UniProt Q01727)
Sequence (Q01727 whole entry): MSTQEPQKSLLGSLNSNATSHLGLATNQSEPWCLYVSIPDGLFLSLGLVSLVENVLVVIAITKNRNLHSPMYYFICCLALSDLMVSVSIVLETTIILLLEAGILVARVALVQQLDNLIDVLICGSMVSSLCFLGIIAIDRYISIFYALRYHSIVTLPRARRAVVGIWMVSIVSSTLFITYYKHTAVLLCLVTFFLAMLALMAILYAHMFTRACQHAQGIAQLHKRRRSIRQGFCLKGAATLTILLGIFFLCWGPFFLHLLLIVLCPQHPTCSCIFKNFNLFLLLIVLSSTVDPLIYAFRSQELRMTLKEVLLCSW
MEASUREMENT_DESCRIPTION: AlphaScreen cAMP assay, agonist pharmacology in HEK293 cells stably expressing mMC1R
COND: AlphaScreen cAMP, HEK293; mean ± SEM, at least three experiments
Non-standard residues stand in square brackets, D forms with d. Residues, ends and D or L forms follow the SMILES beside them. dPhe(4-tBu) = CC(C)(C)c1ccc(C[C@@H](N)C(=O)O)cc1; dPhe(3,4-Cl2) = N[C@H](Cc1ccc(Cl)c(Cl)c1)C(=O)O; dBip = N[C@H](Cc1ccc(-c2ccccc2)cc1)C(=O)O; dPhe(4-Br) = N[C@H](Cc1ccc(Br)cc1)C(=O)O; dPhe(4-F) = N[C@H](Cc1ccc(F)cc1)C(=O)O; Tic = O=C(O)[C@@H]1Cc2ccccc2CN1
log10 EC50 listing for selected compounds.
All values: log10 EC50 [nM].

{"COMPOUND": "CC(=O)N[C@@H](Cc1c[nH]cn1)C(=O)N[C@@H](CCCNC(=N)N)C(=O)N[C@H](Cc1ccc(F)cc1)C(=O)N1Cc2ccccc2C[C@H]1C(N)=O [KNS2-22-2, Ac-His-Arg-(pF)DPhe-Tic-NH2] (Ac-HR[dPhe(4-F)][Tic]-NH2)", "log10 EC50": 0.26}

Query: Tell me the measured log10 EC50 of CC(=O)N[C@@H](Cc1c[nH]cn1)C(=O)N[C@@H](CCCNC(=N)N)C(=O)N[C@H](Cc1ccc(Cl)c(Cl)c1)C(=O)N1Cc2ccccc2C[C@H]1C(N)=O [KNS2-23-4, Ac-His-Arg-(3,4-diCl)DPhe-Tic-NH2] (Ac-HR[dPhe(3,4-Cl2)][Tic]-NH2) , please.
Result: 0.70

Query: Data request, read-out log10 EC50, for CC(=O)N[C@@H](Cc1c[nH]cn1)C(=O)N[C@@H](CCCNC(=N)N)C(=O)N[C@H](Cc1ccc(Br)cc1)C(=O)N1Cc2ccccc2C[C@H]1C(N)=O [KNS2-22-3, Ac-His-Arg-(pBr)DPhe-Tic-NH2] (Ac-HR[dPhe(4-Br)][Tic]-NH2)
Result: -0.15

Query: Fill in: log10 EC50 of CC(=O)N[C@@H](Cc1c[nH]cn1)C(=O)N[C@@H](CCCNC(=N)N)C(=O)N[C@H](Cc1ccc(-c2ccccc2)cc1)C(=O)N1Cc2ccccc2C[C@H]1C(N)=O [KNS2-23-1, Ac-His-Arg-DBip-Tic-NH2] (Ac-HR[dBip][Tic]-NH2) is ___
Result: -0.22

Query: Value lookup for log10 EC50; key = CC(=O)N[C@@H](Cc1c[nH]cn1)C(=O)N[C@@H](CCCNC(=N)N)C(=O)N[C@H](Cc1ccccc1)C(=O)N1Cc2ccccc2C[C@H]1C(N)=O [KNS3-10, Ac-His-Arg-DPhe-Tic-NH2] (Ac-HR[dF][Tic]-NH2)
Result: 0.66

Query: Requested field: log10 EC50. Item: CC(=O)N[C@@H](Cc1c[nH]cn1)C(=O)N[C@@H](CCCNC(=N)N)C(=O)N[C@H](Cc1ccc(C(C)(C)C)cc1)C(=O)N1Cc2ccccc2C[C@H]1C(N)=O [KNS2-23-3, Ac-His-Arg-(ptBu)DPhe-Tic-NH2] (Ac-HR[dPhe(4-tBu)][Tic]-NH2)
Result: 0.95

Data origin: paper PMC6515519
